These data points were gathered from patent US11673139B2.

# experimentDescription: Passive diffusion of fluorophore through tripartite DIB network (intestinal space, enterocyte, blood compartments)
# Format: in vitro ADME
# Design: dose or concentration left out as unconfirmed
# setupConditions: DIB network, intestinal space droplet (pH 6.5) into enterocyte droplet (pH 7.4), 37° C., exponential curve fit, FIG. 5; read-out: half-life (t1/2) of the fluorophore in the intestinal space (converted)
valueKind: half-life (min)

# smilesRepresentation, valueKind, numericReadout
measured = [
    ("O=C1OC2(c3ccc(O)cc3Oc3cc(O)ccc32)c2ccccc21", "half-life", 1.8),
]
